Tested on: P. falciparum 3D7 trophozoites
RUN DESCRIPTION: microbe, parasite or virus in culture
Format: cell-based, Plasmodium falciparum
EXPERIMENTAL SETUP: 50 nM; 3D7, standard saline
REPORTED ENDPOINT: Effect on resting [Na^+]i

smiles_record=C[C@@H]1CCc2c([nH]c3ccccc23)[C@]2(N1)C(=O)Nc1ccc(Br)cc12 assay_value="little effect"
smiles_record=C[C@@H]1Cc2c([nH]c3cc(F)c(F)cc23)[C@]2(N1)C(=O)Nc1ccc(Cl)cc12 assay_value="little effect"
